# TARGET OF ASSAY: AChE (Musca domestica, UniProt Q7YWJ9)
# Sequence (Q7YWJ9 81-659): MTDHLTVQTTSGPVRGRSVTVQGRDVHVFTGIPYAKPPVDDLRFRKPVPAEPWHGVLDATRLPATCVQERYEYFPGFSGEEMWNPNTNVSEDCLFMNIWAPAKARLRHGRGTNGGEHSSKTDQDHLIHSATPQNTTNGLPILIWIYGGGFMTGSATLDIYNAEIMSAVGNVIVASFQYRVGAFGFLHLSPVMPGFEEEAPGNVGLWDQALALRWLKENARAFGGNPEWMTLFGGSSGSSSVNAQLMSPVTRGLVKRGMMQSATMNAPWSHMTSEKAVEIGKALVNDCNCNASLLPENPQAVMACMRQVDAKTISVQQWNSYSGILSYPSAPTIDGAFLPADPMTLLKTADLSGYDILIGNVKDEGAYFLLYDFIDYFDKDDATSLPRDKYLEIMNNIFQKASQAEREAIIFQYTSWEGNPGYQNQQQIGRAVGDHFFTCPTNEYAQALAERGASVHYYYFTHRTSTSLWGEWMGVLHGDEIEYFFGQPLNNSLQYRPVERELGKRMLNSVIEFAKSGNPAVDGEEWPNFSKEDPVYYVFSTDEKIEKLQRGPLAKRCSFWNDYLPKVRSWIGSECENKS
# TEST SUMMARY: biochemical
# Type: biochemical, fly
PARAMETER: SI: selectivity index, ratio IC50 (BuChE)/IC50 (AChE)
// print number alone

Worked cases, SI: selectivity index, ratio IC50 (BuChE)/IC50 (AChE) given:
>  <SUBSTANCE SMILES>
COc1ccc([N+]2=Cc3c(c4ccccc4n3C)CC2)cc1.[Br-]

>  <MEASUREMENT>
46.9

$$$$
>  <SUBSTANCE SMILES>
Cn1c2ccccc2c2cc[n+](-c3ccc(Cl)cc3)cc21.[Br-]

>  <MEASUREMENT>
107.1

$$$$

Write SI: selectivity index, ratio IC50 (BuChE)/IC50 (AChE) of Cn1c2c(c3ccccc31)CC[N+](c1ccc(F)cc1)=C2.[Br-] ; system used: AChE (Musca domestica, UniProt Q7YWJ9)
4.22

Specify the recorded SI: selectivity index, ratio IC50 (BuChE)/IC50 (AChE) for Cn1c2c(c3ccccc31)CC[N+](c1ccc(Cl)cc1)=C2.[Br-] , system: AChE (Musca domestica, UniProt Q7YWJ9).
5.57

Look up and report SI: selectivity index, ratio IC50 (BuChE)/IC50 (AChE), with AChE (Musca domestica, UniProt Q7YWJ9) as system, for COc1ccc(-[n+]2ccc3c4ccccc4n(C)c3c2)cc1.[Br-]
72.3

// fetch SI: selectivity index, ratio IC50 (BuChE)/IC50 (AChE) for Cn1c2ccccc2c2cc[n+](-c3ccc(Br)cc3F)cc21.[Br-] ; system: AChE (Musca domestica, UniProt Q7YWJ9)
385.0

---

# TEST SUMMARY: In vitro cytotoxicity, MTT assay
# TEST PARAMETERS: mouse, mouse neuroblastoma N2a cells
PARAMETER: IC50 at 48 h (nM)
Output spec: scalar in nM, unitless text.

Please report the measured IC50 at 48 h for Cc1ccc([N+]2=Cc3c(c4ccccc4n3C)CC2)cc1
2130

---

# Tested on: primary cultured porcine fetal kidney cells
# TEST SUMMARY: In vitro cytotoxicity, MTT assay
# TEST PARAMETERS: read-out: Cytotoxicity IC50, primary cultured porcine fetal kidney cells; 48 h
PARAMETER: pIC50
Lab note — pIC50 values are minus log10 of concentrations in M.

State, in one line, measured pIC50 of Cc1ccc(-[n+]2ccc3c4ccccc4n(C)c3c2)cc1.[Br-]
4.74

---

# TARGET OF ASSAY: BuChE (Equus caballus, UniProt P81908)
# Construct: BuChE (E.C. 3.1.1.8) (BR, 20 u/mg) from horse serum
# Sequence (P81908 whole entry): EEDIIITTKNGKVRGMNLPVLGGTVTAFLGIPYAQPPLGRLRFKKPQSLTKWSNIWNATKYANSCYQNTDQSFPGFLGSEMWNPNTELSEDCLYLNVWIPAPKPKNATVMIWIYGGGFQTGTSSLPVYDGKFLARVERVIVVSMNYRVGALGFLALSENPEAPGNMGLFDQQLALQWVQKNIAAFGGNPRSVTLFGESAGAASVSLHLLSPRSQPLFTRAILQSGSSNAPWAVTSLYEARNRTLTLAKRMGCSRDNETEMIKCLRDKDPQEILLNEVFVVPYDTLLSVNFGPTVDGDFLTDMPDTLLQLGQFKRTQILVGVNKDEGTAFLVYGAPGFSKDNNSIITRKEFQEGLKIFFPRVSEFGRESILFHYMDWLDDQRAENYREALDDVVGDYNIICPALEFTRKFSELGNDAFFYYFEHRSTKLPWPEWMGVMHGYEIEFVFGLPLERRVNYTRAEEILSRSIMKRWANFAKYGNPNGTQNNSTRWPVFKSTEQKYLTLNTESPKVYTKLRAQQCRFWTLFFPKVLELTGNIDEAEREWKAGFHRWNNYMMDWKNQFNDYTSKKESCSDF
# TEST SUMMARY: BuChE inhibition, Ellman's method
# TEST PARAMETERS: read-out: IC50 ± S.D BuChE
PARAMETER: pIC50
Units for pIC50: none; it is -log10 of a concentration expressed in mol/L.

>  <SUBSTANCE SMILES>
Cn1c2c(c3ccccc31)CC[N+](c1ccc(Br)cc1)=C2.[Br-]

>  <MEASUREMENT>
4.12

$$$$
>  <SUBSTANCE SMILES>
Cn1c2ccccc2c2cc[n+](-c3cccc(O)c3)cc21.[Br-]

>  <MEASUREMENT>
4.53

$$$$
>  <SUBSTANCE SMILES>
Cn1c2c(c3ccc(Cl)cc31)CC[N+](c1ccccc1)=C2.[Br-]

>  <MEASUREMENT>
4.93

$$$$

Given Cn1c2ccccc2c2cc[n+](-c3ccccc3F)cc21.[Br-] , respond with its pIC50.
4.64

// Input: Cn1c2c(c3ccccc31)CC[N+](c1ccc(I)cc1)=C2.[Br-] . Output its pIC50 only.
4.27

Fill in pIC50 for record CC(C)n1c2c(c3ccccc31)CC[N+](c1ccccc1)=C2.[Br-]
4.79

Name the recorded pIC50 of the compound listed here: Cn1c2c(c3ccccc31)CC[N+](c1ccc(Cl)cc1)=C2.[Br-]
4.37

Name the recorded pIC50 of the item Cc1cccc(-[n+]2ccc3c4ccccc4n(C)c3c2)c1.[Br-] in your answer.
4.16

Identify measured pIC50 corresponding to Cc1ccc2c(c1)c1c(n2C)C=[N+](c2ccccc2)CC1.[Br-]
4.97

Specify reported pIC50 for the compound shown: Cc1ccccc1-[n+]1ccc2c3ccccc3n(C)c2c1.[Br-]
3.81

Please look at this compound and report its pIC50: Cn1c2ccccc2c2cc[n+](-c3ccc(C(F)(F)F)cc3)cc21.[Br-]
4.11

Fill in pIC50 for record Cn1c2ccccc2c2cc[n+](-c3cccc(F)c3)cc21.[Br-]
4.14

Give me measured pIC50, please, for this compound: Cn1c2c(c3ccccc31)CC[N+](c1ccc(O)cc1)=C2.[Br-]
4.55

Return pIC50 for the following compound: COc1ccc([N+]2=Cc3c(c4ccccc4n3C)CC2)cc1.[Br-]
3.86

Return reported pIC50. Input compound: Cn1c2c(c3ccc(F)cc31)CC[N+](c1ccccc1)=C2.[Br-]
4.85

State, in one line, measured pIC50 of CCCn1c2c(c3ccccc31)CC[N+](c1ccccc1)=C2.[Br-]
4.89

Read off the recorded pIC50 for Cn1c2ccccc2c2cc[n+](-c3ccc(Br)cc3Br)cc21.[Br-]
4.51

Fill in reported pIC50 for this entry: Cn1c2ccccc2c2cc[n+](-c3ccccc3C#N)cc21.[Br-]
3.71

# return recorded pIC50 for entry C=CCn1c2c(c3ccccc31)CC[N+](c1ccccc1)=C2.[Br-]
5.17

Please supply the value of reported pIC50 for the item COc1ccc(-[n+]2ccc3c4ccccc4n(C)c3c2)cc1.[Br-]
4.47

Assign pIC50 to the following record: Cn1c2ccccc2c2cc[n+](-c3ccc(F)cc3)cc21.[Br-]
4.29

Using known records, supply pIC50 for Cn1c2ccccc2c2cc[n+](-c3ccc(Cl)cc3Cl)cc21.[Br-]
3.88

Look up and report measured pIC50 for this entry: Cc1ccc([N+]2=Cc3c(c4ccccc4n3C)CC2)cc1
4.10

Kindly indicate its recorded pIC50. Item: Cn1c2ccccc2c2cc[n+](-c3cccc(C#N)c3)cc21.[Br-]
3.67

Return value of pIC50 for input COc1ccc2c(c1)c1c(n2C)C=[N+](c2ccccc2)CC1.[Br-] , no commentary.
4.42

In one line, give reported pIC50 of the entry Cn1c2c(c3ccccc31)CC[N+](c1ccc(F)cc1)=C2.[Br-] .
4.23

Fill in pIC50 for record COc1cccc(-[n+]2ccc3c4ccccc4n(C)c3c2)c1.[Br-]
4.21

Supply measured pIC50 of CCCCn1c2c(c3ccccc31)CC[N+](c1ccccc1)=C2.[Br-] in your reply.
5.00

Consider the compound CCn1c2c(c3ccccc31)CC[N+](c1ccccc1)=C2.[Br-] . State its measured pIC50.
4.98

Given Cn1c2ccccc2c2cc[n+](-c3ccc(Br)cc3F)cc21.[Br-] , respond with its pIC50.
3.94

Please supply the value of reported pIC50 for the item Cn1c2ccccc2c2cc[n+](-c3cccc(I)c3)cc21.[Br-]
4.68

---

# TARGET OF ASSAY: AChE (Musca domestica, UniProt Q7YWJ9)
# TEST SUMMARY: biochemical
# Format: biochemical, fly
# TEST PARAMETERS: read-out: IC50 ± S.D AChE
pIC50 by entry:
Lab note: report pIC50 as minus log10 of the concentration in molar units, number only.

Example entries begin here.
>  <MOLECULE>
Cc1ccc2c(c1)c1c(n2C)C=[N+](c2ccccc2)CC1.[Br-]

>  <TARGET OF ASSAY>
AChE (Musca domestica, UniProt Q7YWJ9)

>  <PARAMETER>
pIC50

>  <MEASUREMENT>
5.58

$$$$
>  <MOLECULE>
Cn1c2ccccc2c2cc[n+](-c3ccc(F)cc3)cc21.[Br-]

>  <TARGET OF ASSAY>
AChE (Musca domestica, UniProt Q7YWJ9)

>  <PARAMETER>
pIC50

>  <MEASUREMENT>
5.84

$$$$
>  <MOLECULE>
C=CCn1c2c(c3ccccc31)CC[N+](c1ccccc1)=C2.[Br-]

>  <TARGET OF ASSAY>
AChE (Musca domestica, UniProt Q7YWJ9)

>  <PARAMETER>
pIC50

>  <MEASUREMENT>
5.41

$$$$

Give measured pIC50 for CC(C)n1c2ccccc2c2cc[n+](-c3ccccc3)cc21.[Br-] (AChE (Musca domestica, UniProt Q7YWJ9)).
6.27

Print AChE (Musca domestica, UniProt Q7YWJ9) pIC50 for Cn1c2c(c3ccccc31)CC[N+](c1ccc(O)cc1)=C2.[Br-] .
5.55

Provide the reported pIC50 (system: AChE (Musca domestica, UniProt Q7YWJ9)) for Cn1c2ccccc2c2cc[n+](-c3ccc(Cl)cc3)cc21.[Br-]
6.25

For AChE (Musca domestica, UniProt Q7YWJ9), give the measured pIC50 of the entry Cc1ccc2c(c1)c1cc[n+](-c3ccccc3)cc1n2C.[Br-]
6.38

Fetch value of pIC50 on AChE (Musca domestica, UniProt Q7YWJ9) for Cn1c2ccccc2c2cc[n+](-c3ccccc3C#N)cc21.[Br-] .
5.36
